- System: NCI-H23 lung
- assay protocol: NCI-60 one-dose screen, 48 h (100 = growth as untreated, 0 = no growth, -100 = all killed)
- experimental context: 10 µM unless noted
- Method: Growth inhibition of the NCI-H23 human Non-Small Cell Lung tumor cell line is measured as a screen for anti-cancer activity. Cells are grown in 96 well plates and exposed to the test compound for 48 hours. Compounds are tested at a single concentration, which is 10^-5 M for most compounds. The reported endpoint is percent growth (GI% or GIPRCNT), where numbers from 0 - 100% represent growth inhibition, and numbers from -100% - 0 represent cell death. […]
About 83,000 compounds went through this panel and 20% of them were active in at least one assay; those are over-represented in the sample as a whole. The source made the active and inactive calls. How the source made its calls: active means growth percent below 10; inactive means the rest.
recorded endpoint: growth

Solved cases (6 shown):
CCCCCCCCN1C(=O)/C(=c2\sc3n(c2=O)C2C(NN=3)N(CC)C(=O)N2CC)c2ccccc21 (configuration not stated)    79.1% (inactive)
COc1ccc(C2=C(c3ccccc3)c3ccc(OC(C)=O)cc3OC2(C)C)cc1    79.8% (inactive)
Clc1cc(Cl)cc(N2N=C(c3cccc(Nc4ccncc4)c3)CC2c2ccc(Br)cc2)c1 (configuration not stated)    64.4% (inactive)
COc1ccccc1Nc1cc(O)c2c(=O)cc(-c3ccccc3)oc2c1    51.5% (inactive)
N/C(=N\N=C\c1cc2ccccc2s1)N/N=C/c1cc2ccccc2s1    103% (inactive)
COc1ccc(-c2nc(N/N=C/c3cccc(Br)c3)nc(N3CCOCC3)c2C#N)cc1    103% (inactive)

Problem: Sample Fc1ccc(C2CC(c3cccc(Nc4ccncc4)c3)=NN2c2cc(Cl)cc(Cl)c2)cc1 (configuration not stated) — what was its growth?
Solution: 80.2% (inactive)

* * *

- System: SK-OV-3 ovarian
- assay protocol: NCI-60 one-dose screen, 48 h
- experimental context: 10 µM unless noted
About 83,000 compounds went through this panel and 20% of them were active in at least one assay; those are over-represented in the sample as a whole. Active and inactive are the calls of the source. The calls were made as follows: active = growth percent below 10; inactive = the rest.
Field 'call' accepts active, inactive

CCC(C)C(N)C(=O)NNc1n[nH]c(=S)n1N (stereo not given)    inactive

Problem: Record lookup: outcome of this test for O=C(O)CNC(=O)CN1C(=O)c2ccccc2C1=O ?
Solution: inactive

Problem: State the result this test recorded for Cc1c(C(=O)NO)sc2ncnc(Nc3ccc(NC(=S)Nc4ccccc4)cc3)c12 .
Solution: inactive

Problem: Please share the test call associated with CCN(CC)CCCC(Nc1c2ccc(Cl)cc2nc2ccc(OC)cc12)c1ccc(Cl)cc1 (stereo not given) .
Solution: inactive

Problem: Answer briefly: the call reported for CCOc1ccc(/C=N/Nc2cc(C)nc3ccc(Cl)cc23)cc1 in this assay.
Solution: inactive

* * *

Quick list: growth per entry.
- Test system: CAKI-1 renal
- assay protocol: NCI-60 one-dose screen, 48 h (100 = growth as untreated, 0 = no growth, -100 = all killed)
- experimental context: 10 µM unless noted
- Method: Growth inhibition of the CAKI-1 human tumor cell line is measured as a screen for anti-cancer activity. Cells are grown in 96 well plates and exposed to the test compound for 48 hours. Compounds are tested at a single concentration, which is 10^-5 M for most compounds. The reported endpoint is percent growth (GI% or GIPRCNT), where numbers from 0 - 100% represent growth inhibition, and numbers from -100% - 0 represent cell death. For example, a value of 40 represents 60% growth inhibition. […]
The panel holds about 83,000 compounds, 20% with a hit somewhere; the sample as a whole holds those more often. Calls of active or inactive are those of the source. How the source made its calls: active means growth percent below 10; inactive means the rest.

COc1ccc(/C=C\c2nc3ccccc3s2)cc1OP(=O)(O)O    38.5% (inactive)
COc1cc2nc(Cc3ccc(C)cc3)[nH]c(=O)c2cc1OC    129% (inactive)
CC(=O)c1c(-c2ccc(OC(F)(F)F)cc2)nc2ccccn12    92.4% (inactive)

# context switch: different compound, same growth
Problem: I am curious: what growth value has been reported for COc1ccccc1/C=C1\COc2ccc(-c3ccccc3)cc2C1=O ?
Solution: 86.4% (inactive)

* * *

- Test system: CAKI-1 renal
- assay protocol: NCI-60 one-dose screen, 48 h
- experimental context: 10 µM unless noted
The panel holds about 83,000 compounds, 20% with a hit somewhere; the sample as a whole holds those more often. Calls of active or inactive are those of the source. The calls were made as follows: active = growth percent below 10; inactive = the rest.
Your reply should match one of these outcome classes. active, inactive

Problem: Which outcome was assigned to FC(F)(F)c1cccc(Nc2ccccc2)c1 in this test?
Solution: inactive

Problem: Which outcome did this test record for the molecule Cc1ccccc1-c1cc(Cc2ccc(F)cc2)c(=O)[nH]n1 ?
Solution: inactive

Problem: So what was the verdict on COc1ccccc1OCC(=O)N1CCCCCC1 in this test?
Solution: inactive

Problem: Fill in: this test's call for BrC(Br)(Br)c1cnc2ccccc2n1 is ___
Solution: active

Problem: Can you look up the reported call for COc1ccc(C(=O)/C=C/c2cn(Cc3ccc(Cl)cc3)c3ccccc23)cc1 for me?
Solution: active

Problem: Hi, sorry to bother you, what did the test record for COc1ccc(NC(=O)c2sc3nc(C)c(C(O)c4ccc(OC)cc4)cc3c2N)cc1 (stereo not given) ?
Solution: inactive

Problem: What was the test verdict on O=C(Nc1ccc2ncnc(Nc3ccc(Oc4cccc(F)c4)c(Cl)c3)c2c1)c1ccc(CN2CCOCC2)cc1 ?
Solution: inactive

Problem: Called result for COc1cccc(CNCCN2C(=O)c3ccc4c5c(ccc(c35)C2=O)C(=O)N(CCNCc2cccc(OC)c2)C4=O)c1
Solution: inactive

Problem: Per the records of this test, what outcome belongs to CC(=O)OCC(=O)C1(O)C(C)CC2C3C=C(C)C4=Cc5c(cnn5-c5ccccc5)CC4(C)C3C(O)CC21C (stereo not given) ?
Solution: inactive

Problem: Any idea what this test logged for COc1cc(OC)cc(C2C3=C(COC3=O)Nc3cc(OC)ccc32)c1 (stereo not given) ?
Solution: inactive

Problem: How did this test come out for COc1ccc(-c2c[nH]c(C(=O)O)c2-c2cc(OC)c3c(c2OC)OCO3)cc1 ?
Solution: inactive

Problem: Field: outcome | Entry: CN(C)Cc1c(-c2ccccc2)[nH]c2ccccc12
Solution: inactive

Problem: GET /call?item= O=C1Nc2c(ccc(Cl)c2Cl)/C1=C/c1ccc(F)cc1 returns the recorded outcome of this test.
Solution: inactive

Problem: So what was the verdict on CN1CCN(C(=O)[C@]2(C)CC[C@]3(C)CC[C@]4(C)C(=CC(=O)[C@@H]5[C@@]6(C)CCC(=O)NC(C)(C)[C@@H]6CC[C@]54C)[C@@H]3C2)CC1 in this test?
Solution: inactive

* * *

- System: T-47D breast
- assay protocol: NCI-60 one-dose screen, 48 h (100 = growth as untreated, 0 = no growth, -100 = all killed)
- experimental context: 10 µM unless noted
The panel holds about 83,000 compounds, 20% with a hit somewhere; the sample as a whole holds those more often.
Recorded growth, one value per entry.
Reply with just the number (in %).

Would you please look over these solved cases?
O=C(Nc1cccc(Cl)c1)c1cc(Cl)ccc1O    -11.9
C[C@H]1[C@H](C)CC[C@]2(CO)CC[C@]3(C)C(=CC[C@@H]4[C@@]5(C)Cc6c([nH]c7ccccc67)C(C)(C)[C@@H]5CC[C@]43C)[C@H]12    68.3

Problem: Checklist item: growth tested on T-47D breast, entry O=C1NC(=S)NC(=O)C1=Cc1cn(Cc2ccccn2)c2ccccc12 , value?
Solution: 89.8

Problem: Find the measured growth: item O=S(=O)(NCCNc1nccc(-c2c(-c3ccc(F)c(O)c3)nc3sccn23)n1)c1ccccc1 , target or system T-47D breast.
Solution: 68.8

Problem: Give the reported growth for COc1ccc(OC)c(/C=C/[C@H]2O[C@@H](C)[C@H](O)[C@@H]2O)c1 (system: T-47D breast).
Solution: 96

Problem: Can you look up growth on T-47D breast for COc1ccc(C2CC(c3cccc(Nc4ccncc4)c3)=NN2c2ccc(Cl)cc2)cc1 (configuration not stated) ?
Solution: 65.7

Problem: Short answer please: growth, T-47D breast, entry Cc1cc(C)n(Nc2nc3ccccc3[nH]c2=O)c(=O)c1C#N
Solution: 86

Problem: API: value(readout= growth, system= T-47D breast, query= BrC(Br)(Br)c1cnc2ccccc2n1 )
Solution: -49.3

Problem: What measured growth is associated with COc1ccc(Nc2nc(N)nc3c2CCc2occc2-3)cc1 on T-47D breast?
Solution: 83.4

Problem: Identify the measured growth of O=C(O)c1ccc[n+](CC(=O)N2CCN(c3cc4c(cc3F)c(=O)c(C(=O)O)cn4C3CC3)CC2)c1 for T-47D breast.
Solution: 85.9

Problem: Request - read-out growth | tested on T-47D breast | molecule CN(C)CCCn1c2c(c3ccc(-c4ccn[nH]4)cc3c1=O)C(=O)c1ccccc1-2
Solution: 43.2

Problem: For the record CN1CCN(C(=O)[C@]2(C)CC[C@]3(C)CC[C@]4(C)C(=CC(=O)[C@@H]5[C@@]6(C)CCC(=O)NC(C)(C)[C@@H]6CC[C@]54C)[C@@H]3C2)CC1 , what value of growth is listed for T-47D breast?
Solution: 79.9

The reported numbers originate from PubChem BioAssay (NCI).
